meta.source: the supplement of paper PMC9233669

Tested on: biotinyl-Trp-oxazolone
Assay: self-aminoacylation, catalytic enhancement (BWO) (fold over background); higher = more active; k-Seq, kA / k0A0; sequences stand for … in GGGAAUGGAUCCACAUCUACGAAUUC…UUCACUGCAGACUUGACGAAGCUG
Variants at the floor of the assay were thinned out.
Answer rule not met if self-aminoacylation is under 1, and rule met if it is 1 or more.

[[record]]
sequence_record = "UUUCACCUAGUUCAUCGGGUG [Fam2.2 aminoacylation ribozyme variant]"
category_label = "rule met"

[[record]]
sequence_record = "AUUUCCCUGGUCAUCGCGUGA [Fam2.1 aminoacylation ribozyme variant]"
category_label = "rule met"

[[record]]
sequence_record = "CUACUUCAGAUAAUCGGUCUG [Fam1A.1 aminoacylation ribozyme variant]"
category_label = "rule not met"

[[record]]
sequence_record = "AAGUUUGCUGAUAGUAGCAAG [Fam3.1 aminoacylation ribozyme variant]"
category_label = "rule met"

[[record]]
sequence_record = "AGGACCCUGGUCAUCGAGUGA [Fam2.1 aminoacylation ribozyme variant]"
category_label = "rule met"

[[record]]
sequence_record = "AUUCACCUAGGUUAUCGGGUA [Fam2.2 aminoacylation ribozyme variant]"
category_label = "rule met"

[[record]]
sequence_record = "CAACACUUCAAGCAAUCGGUG [Fam1B.1 aminoacylation ribozyme variant]"
category_label = "rule met"

[[record]]
sequence_record = "AUUUCCCUCGUCAUCGAGUGA [Fam2.1 aminoacylation ribozyme variant]"
category_label = "rule met"

[[record]]
sequence_record = "AAGUUUGCUAAUAGUCAUAAG [Fam3.1 aminoacylation ribozyme variant]"
category_label = "rule met"

[[record]]
sequence_record = "AUUACCUUGGUAAUCGAGUGA [Fam2.1 aminoacylation ribozyme variant]"
category_label = "rule met"

[[record]]
sequence_record = "CUAAUUCAAACAAUCGGUCUA [Fam1A.1 aminoacylation ribozyme variant]"
category_label = "rule not met"

[[record]]
sequence_record = "CCACACUUCAAGCAUACGGUC [Fam1B.1 aminoacylation ribozyme variant]"
category_label = "rule not met"

[[record]]
sequence_record = "GAGUUUGCUUAUAGUCGCAAG [Fam3.1 aminoacylation ribozyme variant]"
category_label = "rule met"

[[record]]
sequence_record = "ACACGCUUCAAGCAAUCGGUC [Fam1B.1 aminoacylation ribozyme variant]"
category_label = "rule met"

[[record]]
sequence_record = "CCAGACUCCAAGCAAUCGGUC [Fam1B.1 aminoacylation ribozyme variant]"
category_label = "rule met"

[[record]]
sequence_record = "AUUCACCUAAGUCAUCGGUUG [Fam2.2 aminoacylation ribozyme variant]"
category_label = "rule not met"

[[record]]
sequence_record = "CCACGCUUCAAGCAAUCCGUC [Fam1B.1 aminoacylation ribozyme variant]"
category_label = "rule met"


----------
Test system: biotinyl-Val-oxazolone
Experiment: self-aminoacylation, catalytic enhancement (BVO) (fold over background); higher = more active; k-Seq, kA / k0A0; sequences stand for … in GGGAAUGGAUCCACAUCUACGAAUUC…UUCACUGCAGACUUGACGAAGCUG
This sample holds only a part of the variants without activity.
observation.type: self-aminoacylation

[[record]]
sequence_record = "AUUACACUGGUCAUUGAGUGA [Fam2.1 aminoacylation ribozyme variant]"
recorded_measurement = 3.28

[[record]]
sequence_record = "CCACACUUCACGCAAUCGGCC [Fam1B.1 aminoacylation ribozyme variant]"
recorded_measurement = 3.47

[[record]]
sequence_record = "AAGUUUCCUAGUAGUCGCAAG [Fam3.1 aminoacylation ribozyme variant]"
recorded_measurement = 1.44

[[record]]
sequence_record = "AUUACCCUGGUCAUCGACUGC [Fam2.1 aminoacylation ribozyme variant]"
recorded_measurement = 0.722

[[record]]
sequence_record = "AUUGCACUGGUCAUCGAGUGA [Fam2.1 aminoacylation ribozyme variant]"
recorded_measurement = 3.93

[[record]]
sequence_record = "CCACACUUCAAGCAAUCGUUC [Fam1B.1 aminoacylation ribozyme variant]"
recorded_measurement = 0.845

[[record]]
sequence_record = "CCACACUUCAACCACUCGGUC [Fam1B.1 aminoacylation ribozyme variant]"
recorded_measurement = 1.28

[[record]]
sequence_record = "CCAAACUUGAAGCAAUCGGUC [Fam1B.1 aminoacylation ribozyme variant]"
recorded_measurement = 0.996

[[record]]
sequence_record = "AAGUCUGCUAAUAGUGGCAAG [Fam3.1 aminoacylation ribozyme variant]"
recorded_measurement = 0.765

[[record]]
sequence_record = "AUUCACCUACCUCAUCGGGUG [Fam2.2 aminoacylation ribozyme variant]"
recorded_measurement = 2.33

[[record]]
sequence_record = "CCAGACGUCAAGCAAUCGGUC [Fam1B.1 aminoacylation ribozyme variant]"
recorded_measurement = 1.99

[[record]]
sequence_record = "CUACUUCAAACUAUCGGUUUG [Fam1A.1 aminoacylation ribozyme variant]"
recorded_measurement = 0.961

[[record]]
sequence_record = "CCACACUUCAACCAAUCGGGC [Fam1B.1 aminoacylation ribozyme variant]"
recorded_measurement = 2.93

[[record]]
sequence_record = "AUACUUCAAAUAAUCGGUCUG [Fam1A.1 aminoacylation ribozyme variant]"
recorded_measurement = 0.877

[[record]]
sequence_record = "GCACACUUCAAGCAUUCGGUC [Fam1B.1 aminoacylation ribozyme variant]"
recorded_measurement = 2.59

[[record]]
sequence_record = "ACAGACUUCAAGCAAUCGGUC [Fam1B.1 aminoacylation ribozyme variant]"
recorded_measurement = 2.27

[[record]]
sequence_record = "CGACUUCAAACAAGCGGUCUG [Fam1A.1 aminoacylation ribozyme variant]"
recorded_measurement = 1.37

[[record]]
sequence_record = "AAGUUUUCUAAUAGUCGCAAA [Fam3.1 aminoacylation ribozyme variant]"
recorded_measurement = 1.54


----------
Readings of self-aminoacylation for the listed sequences
Test system: biotinyl-Val-oxazolone
Test: self-aminoacylation, catalytic enhancement (BVO) (fold over background); higher = more active; k-Seq, kA / k0A0; sequences stand for … in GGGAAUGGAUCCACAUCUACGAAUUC…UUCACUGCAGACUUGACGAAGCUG
Variants at the floor of the assay were thinned out.
observation.type: self-aminoacylation

[[record]]
sequence_record = "AUUUACCUUGGUCAUCGGGUG [Fam2.2 aminoacylation ribozyme variant]"
recorded_measurement = 4.81

[[record]]
sequence_record = "CCACCCUUCAACCAAUCGGUC [Fam1B.1 aminoacylation ribozyme variant]"
recorded_measurement = 1.47

[[record]]
sequence_record = "CUACUUCAAACAAUCGCUCGG [Fam1A.1 aminoacylation ribozyme variant]"
recorded_measurement = 0.954

[[record]]
sequence_record = "AACUUUGCUACUAGUCGCAAG [Fam3.1 aminoacylation ribozyme variant]"
recorded_measurement = 2.24

[[record]]
sequence_record = "CUUCAUCUAGGUCAUCGGGUG [Fam2.2 aminoacylation ribozyme variant]"
recorded_measurement = 4.7

[[record]]
sequence_record = "AUUACCCUGGUCAUCCAGUGA [Fam2.1 aminoacylation ribozyme variant]"
recorded_measurement = 3.42

[[record]]
sequence_record = "GUUACCCGGGUCAUCGAGUGA [Fam2.1 aminoacylation ribozyme variant]"
recorded_measurement = 4.77

[[record]]
sequence_record = "AGUCACUUAGGUCAUCGGGUG [Fam2.2 aminoacylation ribozyme variant]"
recorded_measurement = 4.36

[[record]]
sequence_record = "AUUCGCCUAGGUCAUCGCGUG [Fam2.2 aminoacylation ribozyme variant]"
recorded_measurement = 10.9

[[record]]
sequence_record = "AUUCACCUAGGUCAUGUGGUG [Fam2.2 aminoacylation ribozyme variant]"
recorded_measurement = 2.1

[[record]]
sequence_record = "GUUACCCUGGUCAUCGAGAGA [Fam2.1 aminoacylation ribozyme variant]"
recorded_measurement = 1.74

[[record]]
sequence_record = "AUCCAUCUAGGUCAUCGGGUG [Fam2.2 aminoacylation ribozyme variant]"
recorded_measurement = 3.94

[[record]]
sequence_record = "CUACUUCAAACAAACGAUCUG [Fam1A.1 aminoacylation ribozyme variant]"
recorded_measurement = 0.779

[[record]]
sequence_record = "CCACACUUGAAGCAAUUGGUC [Fam1B.1 aminoacylation ribozyme variant]"
recorded_measurement = 0.587

[[record]]
sequence_record = "AAGUUAGCUAUUAGUCGCAAG [Fam3.1 aminoacylation ribozyme variant]"
recorded_measurement = 1.6

[[record]]
sequence_record = "AUUACCCUGGUCAUUGAGUGC [Fam2.1 aminoacylation ribozyme variant]"
recorded_measurement = 0.993

[[record]]
sequence_record = "UUACUUCAAACAAUCGGCCUG [Fam1A.1 aminoacylation ribozyme variant]"
recorded_measurement = 2.3

[[record]]
sequence_record = "AUUACCCUGUUCAUAGAGUGA [Fam2.1 aminoacylation ribozyme variant]"
recorded_measurement = 6.44


----------
Test system: biotinyl-Leu-oxazolone
Assay: self-aminoacylation, catalytic enhancement (BLO) (fold over background); higher = more active; k-Seq, kA / k0A0; sequences stand for … in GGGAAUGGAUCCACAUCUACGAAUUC…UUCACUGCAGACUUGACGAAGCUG
Variants at the floor of the assay were thinned out.
observation.type: self-aminoacylation

[[record]]
sequence_record = "UCACAUUUCAAGCAAUCGGUC [Fam1B.1 aminoacylation ribozyme variant]"
recorded_measurement = 0.847

[[record]]
sequence_record = "AGUACCCUGGUCACCGAGUGA [Fam2.1 aminoacylation ribozyme variant]"
recorded_measurement = 9.52

[[record]]
sequence_record = "CCACACUUCAAUCAAUCGUUC [Fam1B.1 aminoacylation ribozyme variant]"
recorded_measurement = 0.506

[[record]]
sequence_record = "CCACACUUUAAGCAAUGGGUC [Fam1B.1 aminoacylation ribozyme variant]"
recorded_measurement = 0.618

[[record]]
sequence_record = "AAGUUGGCUAAUAGUCGCAAC [Fam3.1 aminoacylation ribozyme variant]"
recorded_measurement = 1.42

[[record]]
sequence_record = "CUUCACCUAAGUCAUCGGGUG [Fam2.2 aminoacylation ribozyme variant]"
recorded_measurement = 8.79

[[record]]
sequence_record = "CCACACUUCAACCAAUCGGGC [Fam1B.1 aminoacylation ribozyme variant]"
recorded_measurement = 2.24

[[record]]
sequence_record = "AUUCACCUAAGUCAUCGGGUA [Fam2.2 aminoacylation ribozyme variant]"
recorded_measurement = 3

[[record]]
sequence_record = "AUUCACCUAGAUCAUCCGGUG [Fam2.2 aminoacylation ribozyme variant]"
recorded_measurement = 3.97

[[record]]
sequence_record = "AUUACCCUGGUCAUGUAGUGA [Fam2.1 aminoacylation ribozyme variant]"
recorded_measurement = 2

[[record]]
sequence_record = "AGUACCUUGGUCAUCGAGUGA [Fam2.1 aminoacylation ribozyme variant]"
recorded_measurement = 6.37

[[record]]
sequence_record = "GCACACUUCAAGCAAUCGGUU [Fam1B.1 aminoacylation ribozyme variant]"
recorded_measurement = 3.33

[[record]]
sequence_record = "AUUGCCCUGGUCAUCGAGCGA [Fam2.1 aminoacylation ribozyme variant]"
recorded_measurement = 3.48

[[record]]
sequence_record = "AUUCACCCAGGUCAUCGUGUG [Fam2.2 aminoacylation ribozyme variant]"
recorded_measurement = 1.29

[[record]]
sequence_record = "ACUCACCUAGGUGAUCGGGUG [Fam2.2 aminoacylation ribozyme variant]"
recorded_measurement = 6.01

[[record]]
sequence_record = "CCACACUUCAGACAAUCGGUC [Fam1B.1 aminoacylation ribozyme variant]"
recorded_measurement = 1.53

[[record]]
sequence_record = "AUUACCCUGCUCAUCGAGUGU [Fam2.1 aminoacylation ribozyme variant]"
recorded_measurement = 0.916

[[record]]
sequence_record = "AAGUUUGCUAAUAGUGGCACG [Fam3.1 aminoacylation ribozyme variant]"
recorded_measurement = 0.622

